Catalogue of protein stability index readings, one per entry.
B1: RAB40A (parent)
chain: NWLGRPSKVLSLQDLCCRTIVSCT

# Variants of: B1
# EXPERIMENT_NOTES: protein stability index of a GFP-peptide fusion (GPS, HEK-293T) (PSI 1-6); higher = more stable;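 note: lentivirally expressed fusions sorted by FACS into six bins by GFP to DsRed ratio, PSI derived from sequencing read proportions per bin multiplied by bin number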
# CONDITION_PARAMETERS: c terminus: a fixed tail appended
I only need the number, thanks.

Please review the following examples before continuing.
[[record]]
alteration = "T19C"
value_kind = "protein stability index"
reported = 2.04

[[record]]
alteration = "C16P"
value_kind = "protein stability index"
reported = 2.02


Now take the following variant into account.
For the variant shown here, "S22P" , give the reported protein stability index.
2
